# reported mean fluorescence intensity; entries follow
target: T1, human CD47, full length, on transfected cells (human, UniProt Q08722 19-323); assay: FACS CHOK1-hCD47; Ab 1.6 nM
T1 construct: whole, on cells; also called CHOK1-hCD47
Would you mind answering with just the numeric figure?

# binder, mean fluorescence intensity
records = [
    ("25E3B5 (antibody, V domains shown, Murine hybridoma antibody purified on protein G) VH: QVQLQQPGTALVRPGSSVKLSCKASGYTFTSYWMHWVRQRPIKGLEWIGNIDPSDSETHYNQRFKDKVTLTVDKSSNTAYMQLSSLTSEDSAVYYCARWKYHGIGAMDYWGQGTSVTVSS VL: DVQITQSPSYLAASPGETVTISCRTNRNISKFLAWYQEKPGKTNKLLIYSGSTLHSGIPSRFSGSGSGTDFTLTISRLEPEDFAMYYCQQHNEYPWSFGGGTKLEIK", 4430),
    ("20H4G5 (antibody, V domains shown, Murine hybridoma antibody purified on protein G) VH: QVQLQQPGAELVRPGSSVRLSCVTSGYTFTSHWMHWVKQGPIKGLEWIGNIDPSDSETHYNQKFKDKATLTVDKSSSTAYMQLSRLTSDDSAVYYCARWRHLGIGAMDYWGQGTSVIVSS VL: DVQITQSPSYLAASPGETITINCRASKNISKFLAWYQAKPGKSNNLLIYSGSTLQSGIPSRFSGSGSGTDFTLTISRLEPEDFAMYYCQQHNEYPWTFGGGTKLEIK", 6160),
    ("95E2D10 (antibody, V domains shown, Murine hybridoma antibody purified on protein G) VH: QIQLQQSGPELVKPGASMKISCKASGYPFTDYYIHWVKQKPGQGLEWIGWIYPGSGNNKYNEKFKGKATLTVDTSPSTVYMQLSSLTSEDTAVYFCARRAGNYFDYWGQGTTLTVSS VL: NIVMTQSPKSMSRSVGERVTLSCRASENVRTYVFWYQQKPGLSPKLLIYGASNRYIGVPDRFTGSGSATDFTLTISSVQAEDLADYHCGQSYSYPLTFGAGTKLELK", 6140),
]

# mean fluorescence intensity lookup, item 4D10B11 (antibody, V domains shown, Murine hybridoma antibody purified on protein G) VH: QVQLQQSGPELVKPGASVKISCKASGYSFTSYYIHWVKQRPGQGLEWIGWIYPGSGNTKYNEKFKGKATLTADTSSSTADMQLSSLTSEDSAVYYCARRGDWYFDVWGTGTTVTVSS VL: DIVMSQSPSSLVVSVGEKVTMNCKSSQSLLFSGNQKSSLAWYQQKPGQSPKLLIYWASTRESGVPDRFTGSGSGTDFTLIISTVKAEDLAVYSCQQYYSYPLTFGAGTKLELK
4850

# mean fluorescence intensity lookup, item 54G8G6 (antibody, V domains shown, Murine hybridoma antibody purified on protein G) VH: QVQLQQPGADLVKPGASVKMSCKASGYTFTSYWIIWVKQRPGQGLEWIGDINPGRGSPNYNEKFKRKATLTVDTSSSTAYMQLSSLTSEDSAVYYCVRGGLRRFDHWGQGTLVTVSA VL: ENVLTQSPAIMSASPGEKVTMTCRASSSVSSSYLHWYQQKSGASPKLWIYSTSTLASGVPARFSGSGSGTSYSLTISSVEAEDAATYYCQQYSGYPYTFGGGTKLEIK
6180

# mean fluorescence intensity lookup, item 51E2F11 (antibody, V domains shown, Murine hybridoma antibody purified on protein G) VH: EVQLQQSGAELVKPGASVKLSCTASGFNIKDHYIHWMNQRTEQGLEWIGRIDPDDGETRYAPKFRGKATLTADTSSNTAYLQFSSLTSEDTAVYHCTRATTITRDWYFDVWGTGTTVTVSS VL: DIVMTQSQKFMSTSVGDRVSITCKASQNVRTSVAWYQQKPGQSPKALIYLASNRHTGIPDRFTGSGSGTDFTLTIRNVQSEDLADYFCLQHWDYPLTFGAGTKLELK
6460

# mean fluorescence intensity lookup, item 132D1E5 (antibody, V domains shown, Murine hybridoma antibody purified on protein G) VH: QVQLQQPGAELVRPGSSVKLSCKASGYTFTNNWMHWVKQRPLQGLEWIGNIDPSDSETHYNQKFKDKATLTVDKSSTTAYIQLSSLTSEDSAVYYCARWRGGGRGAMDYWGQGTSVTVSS VL: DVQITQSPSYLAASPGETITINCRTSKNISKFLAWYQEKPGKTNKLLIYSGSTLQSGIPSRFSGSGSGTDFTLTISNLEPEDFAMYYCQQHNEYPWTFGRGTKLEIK
3750
